# targetOfAssay: Lethal factor (Bacillus anthracis, UniProt P15917)
# Sequence (P15917 whole entry): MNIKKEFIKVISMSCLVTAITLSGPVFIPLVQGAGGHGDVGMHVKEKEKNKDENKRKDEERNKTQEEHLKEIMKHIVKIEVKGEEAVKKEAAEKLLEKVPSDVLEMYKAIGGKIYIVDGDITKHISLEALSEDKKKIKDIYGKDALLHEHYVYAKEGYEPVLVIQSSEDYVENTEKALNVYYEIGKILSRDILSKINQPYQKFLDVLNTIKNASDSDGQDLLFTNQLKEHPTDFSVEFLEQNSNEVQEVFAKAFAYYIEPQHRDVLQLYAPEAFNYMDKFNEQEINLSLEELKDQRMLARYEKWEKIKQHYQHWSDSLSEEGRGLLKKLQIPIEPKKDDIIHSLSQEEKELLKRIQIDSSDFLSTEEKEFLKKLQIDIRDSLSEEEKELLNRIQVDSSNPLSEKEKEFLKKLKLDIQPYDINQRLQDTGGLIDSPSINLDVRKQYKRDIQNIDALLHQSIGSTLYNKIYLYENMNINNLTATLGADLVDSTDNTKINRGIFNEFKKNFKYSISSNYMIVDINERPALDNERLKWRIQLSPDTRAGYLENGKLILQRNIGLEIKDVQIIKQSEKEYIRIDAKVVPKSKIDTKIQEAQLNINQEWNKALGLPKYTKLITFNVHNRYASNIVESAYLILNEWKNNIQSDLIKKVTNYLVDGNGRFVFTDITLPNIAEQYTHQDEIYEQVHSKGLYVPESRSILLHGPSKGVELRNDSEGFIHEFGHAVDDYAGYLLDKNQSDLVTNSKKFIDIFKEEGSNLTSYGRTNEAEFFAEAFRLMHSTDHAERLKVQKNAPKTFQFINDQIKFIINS
Below: a set of entries, each annotated with reported Ki.
measuredAttribute: Ki

>>> measuredvalue("Cc1csc(NS(=O)(=O)c2ccc(Cl)cc2)c1-c1nc2ccccc2s1")
"7.8 µM"
>>> measuredvalue("N#C/C(=C\\c1ccc([N+](=O)[O-])s1)C(=O)c1ccco1")
"6.6 µM"
>>> measuredvalue("O=S(=O)(Nc1sccc1-c1nc2ccccc2s1)c1ccc(-c2ccc(Cl)cc2)cc1")
"1.7 µM"

----------
Lethal factor (Bacillus anthracis) measurements of pIC50, listed per entry.
pIC50: −log10 of the molar value.
measuredAttribute: pIC50

>>> measuredvalue("Cc1csc(NS(=O)(=O)c2ccc(Cl)cc2)c1-c1nc2ccccc2s1")
4.82
>>> measuredvalue("Cc1ccc(S(=O)(=O)Nc2nc3ccccc3s2)cc1Cl")
4.55
>>> measuredvalue("Cc1c(S(=O)(=O)Nc2sccc2-c2nc3ccccc3s2)sc2ccccc12")
5.00
>>> measuredvalue("COc1ccc(S(=O)(=O)Nc2scc(C)c2-c2nc3ccccc3s2)cc1OC")
4.47
>>> measuredvalue("O=S(=O)(Nc1sccc1-c1nc2ccccc2s1)c1ccc(Br)cc1")
5.10
>>> measuredvalue("Cc1csc(NS(=O)(=O)c2ccc(-c3ccc(Cl)cc3)cc2)c1-c1nc2ccccc2s1")
4.92
>>> measuredvalue("O=S(=O)(Nc1sccc1-c1nc2ccccc2s1)c1ccc(-c2ccc(C(F)(F)F)cc2)cc1")
5.10
>>> measuredvalue("CC(C)(C)c1ccc(S(=O)(=O)Nc2sccc2-c2nc3ccccc3s2)cc1")
4.89
>>> measuredvalue("O=S(=O)(Nc1sccc1-c1nc2ccccc2s1)c1ccc(OC(F)(F)F)cc1")
5.02
>>> measuredvalue("Cc1nccc(-c2cccc(S(=O)(=O)Nc3sccc3-c3nc4ccccc4s3)c2)n1")
4.92
>>> measuredvalue("O=S(=O)(Nc1sccc1-c1nc2ccccc2s1)c1ccc(-c2ccc(Cl)cc2)cc1")
5.52
>>> measuredvalue("COc1ccc(-c2ccc(S(=O)(=O)Nc3sccc3-c3nc4ccccc4s3)cc2)cc1")
5.42
>>> measuredvalue("O=S(=O)(Nc1sccc1-c1nc2ccccc2s1)c1ccc(Cl)cc1F")
4.74
>>> measuredvalue("Cc1csc(NS(=O)(=O)c2ccc([N+](=O)[O-])cc2)c1-c1nc2ccccc2s1")
4.96
